- study-system: PTB1:34 (RRM3-RRM4) (human, UniProt P26599-1 334-531)
- Sequence (P26599 360-557): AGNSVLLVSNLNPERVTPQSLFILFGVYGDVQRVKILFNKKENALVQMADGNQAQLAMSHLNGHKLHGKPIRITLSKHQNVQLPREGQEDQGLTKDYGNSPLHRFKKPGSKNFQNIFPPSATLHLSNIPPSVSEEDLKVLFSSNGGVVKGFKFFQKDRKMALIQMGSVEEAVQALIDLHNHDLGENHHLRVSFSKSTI
- assay-summary: EMSA
quantity-measured: Kd (nM)
Please give a number only; it is taken to be in nM.

Given the binder GGGACUACGCAAUUCUCUUUUCUGUCUACAAAUCCAAAG (ssRNA) [GABA RNA11] , what is its reported Kd? 50
